System: HCC-2998 colon
Experiment: NCI tumour cell line growth inhibition, 48 h
For each entry below, report its TGI value.

CC#CC#Cc1cccc(=O)o1 : 29.5 µM
CC(=O)c1c(SCCN2CCCCCC2)n(-c2ccccc2)c(=S)n(-c2ccccc2)c1=O : 14.6 µM
CCOP(=O)(OCC)OC1c2[nH]ccc2-c2cc(C(=O)OC)[nH]c2C1OC (stereo unspecified) : > 100 µM
CC1c2ccccc2Cn2cc3c(c21)C(=O)c1cccc(OP(=O)(O)OCc2ccccc2)c1C3=O (stereo unspecified) : > 100 µM
Cc1ccc2c(c1)c(C1=C(c3cn(C)c4ccccc34)C(=O)NC1=O)cn2C : > 25 µM
O=C1C=C(Nc2ccc([N+](=O)[O-])cc2)c2ccccc2C1=O : 22.4 µM
COc1ccc(/C=C2/SC(c3ccccc3)N(NC(=O)CCCCCCCCC(=O)NN3C(=O)/C(=C\c4ccc(OC)c(OC)c4)SC3c3ccccc3)C2=O)cc1OC (stereo unspecified) : > 100 µM
O=C(/C=C/c1cccc2ccccc12)c1ccccc1 : 34.1 µM
N#CC(C#N)=C(C(C#N)C#N)C(C#N)C#N : > 100 µM
COc1ccc2c3ccc4c(c3n(C)c2c1)C(=O)C=CC4=O : > 100 µM

Task item: What value of TGI has been reported for the following compound? NC1CCCCC1N.O=NN1CCCCCC1(P(=O)([O-])[O-])P(=O)([O-])[O-].[Na+].[Pt+2]
Reply: > 100 µM

* * *

For each entry below, report its TGI value.
Test system: HT29 colon
Assay: NCI tumour cell line growth inhibition, 48 h

# count of solved cases: 6
O=C(OC1C=C=CS(=O)(=O)CC#C/C=C\1)c1cnc2ccccc2n1 (stereo not drawn) : > 100 µM
CC(=O)OC1(C)C(=O)OC/C2=C/CN(C)CCC(OC(=O)C(O)(C(C)Cl)CC1C)C2=O (stereo not drawn) : > 100 µM
Cc1cc(C23OC4COC(C)(C)OC4C2OC(C)(C)O3)nc2ccccc12 (stereo not drawn) : > 100 µM
COc1cccc2c1C(=O)C1(O)CCCCC21 (stereo not drawn) : > 100 µM
CNS(=O)(=O)NN(C)S(=O)(=O)c1ccc(OC)cc1 : > 100 µM
CCc1nc(N)nc(N)c1-c1ccc2c(c1)nnn2CCc1ccccc1 : 56.1 µM

I would be grateful if you could provide TGI for each of the following entries.
1. O=C1NC(c2cccc3ccccc23)Nc2ccc(O)cc21 (stereo not drawn)
2. N#Cc1c(O)c(C=Nc2ccc(Cl)cc2)c(=O)n2c1[nH]c1ccccc12
3. Nc1nonc1-c1nc2cnccc2n1C1CCCCC1
4. N#CC1=C(Cl)NC(Cl)=C(C#N)C1c1ccc(Cl)cc1

Reply:
1. 121 µM
2. > 100 µM
3. > 25 µM
4. 30.1 µM

I would be grateful if you could provide TGI for each of the following entries.
1. COc1cc(C2C(C(=O)O)=C(CO)Oc3cc4c(cc32)OCO4)cc(OC)c1OC (stereo not drawn)
2. CC(=O)Oc1ccc(/C=C/C(=O)NCC(NC(=O)/C=C/c2ccc(OC(C)=O)c(OC(C)=O)c2)C(=O)O)cc1OC(C)=O (stereo not drawn)
3. O=C(/C=C/c1cccc2ccccc12)c1ccccc1

Reply:
["> 100 µM", "> 100 µM", "15.8 µM"]
